- assayTarget: recombinant human DPPI (Cathepsin C) (Homo sapiens (Human), UniProt P53634)
- Sequence (P53634 231-394): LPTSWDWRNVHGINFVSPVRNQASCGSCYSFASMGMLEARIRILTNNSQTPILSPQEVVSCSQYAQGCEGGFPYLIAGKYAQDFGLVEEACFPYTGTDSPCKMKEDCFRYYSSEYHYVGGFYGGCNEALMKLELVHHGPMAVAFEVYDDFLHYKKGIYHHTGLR
- Sequence (P53634 25-134): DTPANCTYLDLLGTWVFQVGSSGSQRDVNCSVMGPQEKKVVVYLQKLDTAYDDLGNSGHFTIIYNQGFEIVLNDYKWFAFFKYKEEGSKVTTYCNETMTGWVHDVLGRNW
- Sequence (P53634 395-463): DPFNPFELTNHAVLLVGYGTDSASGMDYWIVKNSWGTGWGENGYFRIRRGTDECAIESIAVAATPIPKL
- experiment: Inhibition of human DPPI (Cathepsin C)
- Type: biochemical
- conditions: Table 14, compounds examined in X-ray crystallography; read-out: CatC IC50
pIC50: −log10 of the molar value.

compound | pIC50
N#C[C@H](Cc1ccc(-c2ccc3c(c2)C2(CCNC2)C(=O)N3)cc1F)NC(=O)[C@H]1N[C@@H]2CC[C@H]1C2 (some centres unmarked) | 9.30
N#C[C@H](Cc1ccc(-c2ccc3c(c2)C2(CNC2)OC3=O)cc1F)NC(=O)[C@H]1N[C@@H]2CC[C@H]1C2 | 9.15

###

- assayTarget: recombinant human DPPI (Cathepsin C) (Homo sapiens (Human))
- experiment: Inhibition of human DPPI (Cathepsin C)
- Type: biochemical
- conditions: recombinant human DPPI, substrate Gly-Arg-AMC, pH 6.0; read-out: Inhibition of DPPI IC50
pIC50: −log10 of the molar value.
We begin with a simple list: items and their reported pIC50.

compound | pIC50
CN1C(=O)C2(CCNCC2)c2cc(-c3ccc(C[C@@H](C#N)NC(=O)[C@H]4N[C@@H]5CC[C@H]4C5)c(F)c3)ccc21 [Example 4] | 9.40
N#C[C@H](Cc1ccc(-c2ccc3c(c2)C2(CCNC2)OC3=O)cc1F)NC(=O)[C@H]1N[C@@H]2CC[C@H]1C2 (stereo partly drawn) [Example 9] | 9.30
N#C[C@H](Cc1ccc(-c2ccc3c(n2)C2(CCN(C4COC4)CC2)OC3)cc1F)NC(=O)[C@H]1N[C@@H]2CC[C@H]1C2 [Example 25] | 8.74
CN1CCC2(CC1)OCc1ccc(-c3ccc(C[C@@H](C#N)NC(=O)[C@H]4N[C@@H]5CC[C@H]4C5)c(F)c3)cc12 [Example 14] | 9.00
N#C[C@H](Cc1ccc(-c2cc3c(cn2)COC32CCN(C3COC3)CC2)cc1F)NC(=O)[C@H]1N[C@@H]2CC[C@H]1C2 [Example 23] | 8.30
CN1CCC2(CC1)OC(=O)c1ccc(-c3ccc(C[C@@H](C#N)NC(=O)[C@H]4N[C@@H]5CC[C@H]4C5)c(F)c3)cc12 [Example 8] | 9.15
CN1CCC2(C1)OC(=O)c1cnc(-c3ccc(C[C@@H](C#N)NC(=O)[C@H]4N[C@@H]5CC[C@H]4C5)c(F)c3)cc12 (stereo partly drawn) [Example 20] | 8.80
CN1CCC2(CC1)C(=O)Nc1ccc(-c3ccc(C[C@@H](C#N)NC(=O)[C@H]4N[C@@H]5CC[C@H]4C5)c(F)c3)cc12 [Example 6] | 9.70
N#C[C@H](Cc1ccc(-c2ccc3c(c2)C2(CNC2)OC3=O)cc1F)NC(=O)[C@H]1N[C@@H]2CC[C@H]1C2 [Example 11] | 9.15
N#C[C@H](Cc1ccc(-c2ccc3c(c2)C2(CCNC2)C(=O)N3)cc1F)NC(=O)[C@H]1N[C@@H]2CC[C@H]1C2 (stereo partly drawn) [Example 16] | 9.30
N#C[C@H](Cc1ccc(-c2ccc3c(n2)C2(CCN(C4COC4)CC2)OC3=O)cc1F)NC(=O)[C@H]1N[C@@H]2CC[C@H]1C2 [Example 24] | 8.57
N#C[C@H](Cc1ccc(-c2cc3c(cn2)C(=O)OC32CCNCC2)cc1F)NC(=O)[C@H]1N[C@@H]2CC[C@H]1C2 [Example 18] | 8.80
CN1CCC2(CC1)C(=O)N(C)c1ccc(-c3ccc(C[C@@H](C#N)NC(=O)[C@H]4N[C@@H]5CC[C@H]4C5)c(F)c3)cc12 [Example 5] | 9.22
N#C[C@H](Cc1ccc(-c2ccc3c(c2)C2(CCNCC2)OC3)cc1F)NC(=O)[C@H]1N[C@@H]2CC[C@H]1C2 [Example 13] | 9.22
CN1CCC2(CC1)OC(=O)c1cnc(-c3ccc(C[C@@H](C#N)NC(=O)[C@H]4N[C@@H]5CC[C@H]4C5)c(F)c3)cc12 [Example 19] | 9.00
CN1CCC2(CC1)OC(=O)c1ncc(-c3ccc(C[C@@H](C#N)NC(=O)[C@H]4N[C@@H]5CC[C@H]4C5)c(F)c3)cc12 [Example 21] | 8.85
CN1CCC2(CC1)OCc1cnc(-c3ccc(C[C@@H](C#N)NC(=O)[C@H]4N[C@@H]5CC[C@H]4C5)c(F)c3)cc12 [Example 26] | 8.70
CN1CCC2(C1)OC(=O)c1ccc(-c3ccc(C[C@@H](C#N)NC(=O)[C@H]4N[C@@H]5CC[C@H]4C5)c(F)c3)cc12 (stereo partly drawn) [Example 10] | 9.22
N#C[C@H](Cc1ccc(-c2cc3c(cn2)C(=O)OC32CCN(C3COC3)CC2)cc1F)NC(=O)[C@H]1N[C@@H]2CC[C@H]1C2 [Example 22] | 8.32
N#C[C@H](Cc1ccc(-c2ccc3c(c2)C2(CCNCC2)CC3)cc1F)NC(=O)[C@H]1N[C@@H]2CC[C@H]1C2 [Example 2] | 9.22
N#C[C@H](Cc1ccc(-c2ccc3c(c2)C2(CCN(C4COC4)CC2)OC3)cc1F)NC(=O)C12CCC(CC1)CN2 [Example 27] | 8.54
N#C[C@H](Cc1ccc(-c2ccc3c(c2)C2(CCN(C4COC4)CC2)OC3)cc1F)NC(=O)[C@H]1N[C@@H]2CC[C@H]1C2 [Example 1] | 8.96
CN1CCC2(CCc3ccc(-c4ccc(C[C@@H](C#N)NC(=O)[C@H]5N[C@@H]6CC[C@H]5C6)c(F)c4)cc32)CC1 [Example 15] | 9.30
N#C[C@H](Cc1ccc(-c2ccc3c(c2)C2(CCNCC2)C(=O)N3)cc1F)NC(=O)[C@H]1N[C@@H]2CC[C@H]1C2 [Example 3] | 9.52
CN1CCCC2(C1)C(=O)N(C)c1ccc(-c3ccc(C[C@@H](C#N)NC(=O)[C@H]4N[C@@H]5CC[C@H]4C5)c(F)c3)cc12 (stereo partly drawn) [Example 17] | 8.80
CN1CC2(C1)OC(=O)c1ccc(-c3ccc(C[C@@H](C#N)NC(=O)[C@H]4N[C@@H]5CC[C@H]4C5)c(F)c3)cc12 [Example 12] | 9.30
N#C[C@H](Cc1ccc(-c2ccc3c(c2)C2(CCNCC2)OC3=O)cc1F)NC(=O)[C@H]1N[C@@H]2CC[C@H]1C2 [Example 7] | 9.30

###

- experiment: Determination of metabolic stability with human liver microsomes
- Type: in vitro ADME
- conditions: pH 7.6; pooled human liver microsomes, 1 mg/ml protein, 1 μM compound, 37° C., NADPH; read-out: In vitro stability in human liver microsome incubations t1/2
We begin with a simple list: items and their reported half-life at 1 μM.
valueKind: half-life at 1 μM

compound | observed
CN1CCC2(CC1)C(=O)Nc1ccc(-c3ccc(C[C@@H](C#N)NC(=O)[C@H]4N[C@@H]5CC[C@H]4C5)c(F)c3)cc12 | 1.83 h
N#C[C@H](Cc1ccc(-c2ccc3c(c2)C2(CCN(C4COC4)CC2)OC3)cc1F)NC(=O)C12CCC(CC1)CN2 | 2 h
CN1CCC2(CC1)OC(=O)c1cnc(-c3ccc(C[C@@H](C#N)NC(=O)[C@H]4N[C@@H]5CC[C@H]4C5)c(F)c3)cc12 | > 2.17 h
CN1CCC2(CC1)OC(=O)c1ncc(-c3ccc(C[C@@H](C#N)NC(=O)[C@H]4N[C@@H]5CC[C@H]4C5)c(F)c3)cc12 | > 2.17 h
CN1CCC2(CCc3ccc(-c4ccc(C[C@@H](C#N)NC(=O)[C@H]5N[C@@H]6CC[C@H]5C6)c(F)c4)cc32)CC1 | > 2.17 h
N#C[C@H](Cc1ccc(-c2ccc3c(n2)C2(CCN(C4COC4)CC2)OC3=O)cc1F)NC(=O)[C@H]1N[C@@H]2CC[C@H]1C2 | > 2.17 h
N#C[C@H](Cc1ccc(-c2cc3c(cn2)COC32CCN(C3COC3)CC2)cc1F)NC(=O)[C@H]1N[C@@H]2CC[C@H]1C2 | > 2.17 h
N#C[C@H](Cc1ccc(-c2cc3c(cn2)C(=O)OC32CCN(C3COC3)CC2)cc1F)NC(=O)[C@H]1N[C@@H]2CC[C@H]1C2 | > 2.17 h
N#C[C@H](Cc1ccc(-c2cc3c(cn2)C(=O)OC32CCNCC2)cc1F)NC(=O)[C@H]1N[C@@H]2CC[C@H]1C2 | > 2.17 h
N#C[C@H](Cc1ccc(-c2ccc3c(n2)C2(CCN(C4COC4)CC2)OC3)cc1F)NC(=O)[C@H]1N[C@@H]2CC[C@H]1C2 | > 2.17 h
CN1CCC2(CC1)OC(=O)c1ccc(-c3ccc(C[C@@H](C#N)NC(=O)[C@H]4N[C@@H]5CC[C@H]4C5)c(F)c3)cc12 | 1.23 h
CN1CCC2(C1)OC(=O)c1cnc(-c3ccc(C[C@@H](C#N)NC(=O)[C@H]4N[C@@H]5CC[C@H]4C5)c(F)c3)cc12 (stereo partly drawn) | > 2.17 h
N#C[C@H](Cc1ccc(-c2ccc3c(c2)C2(CCN(C4COC4)CC2)OC3)cc1F)NC(=O)[C@H]1N[C@@H]2CC[C@H]1C2 | > 2.17 h
N#C[C@H](Cc1ccc(-c2ccc3c(c2)C2(CCNCC2)CC3)cc1F)NC(=O)[C@H]1N[C@@H]2CC[C@H]1C2 | > 2.17 h
N#C[C@H](Cc1ccc(-c2ccc3c(c2)C2(CCNC2)C(=O)N3)cc1F)NC(=O)[C@H]1N[C@@H]2CC[C@H]1C2 (stereo partly drawn) | > 2.17 h
CN1CCC2(CC1)OCc1ccc(-c3ccc(C[C@@H](C#N)NC(=O)[C@H]4N[C@@H]5CC[C@H]4C5)c(F)c3)cc12 | > 2.17 h
N#C[C@H](Cc1ccc(-c2ccc3c(c2)C2(CNC2)OC3=O)cc1F)NC(=O)[C@H]1N[C@@H]2CC[C@H]1C2 | > 2.17 h
CN1C(=O)C2(CCNCC2)c2cc(-c3ccc(C[C@@H](C#N)NC(=O)[C@H]4N[C@@H]5CC[C@H]4C5)c(F)c3)ccc21 | > 2.17 h
N#C[C@H](Cc1ccc(-c2ccc3c(c2)C2(CCNC2)OC3=O)cc1F)NC(=O)[C@H]1N[C@@H]2CC[C@H]1C2 (stereo partly drawn) | > 2.17 h
CN1CC2(C1)OC(=O)c1ccc(-c3ccc(C[C@@H](C#N)NC(=O)[C@H]4N[C@@H]5CC[C@H]4C5)c(F)c3)cc12 | 0.767 h
N#C[C@H](Cc1ccc(-c2ccc3c(c2)C2(CCNCC2)C(=O)N3)cc1F)NC(=O)[C@H]1N[C@@H]2CC[C@H]1C2 | > 2.17 h

Recorded values, source patent US9540373B2.
